# test-protocol: Cytotoxicity against MDCK cells assessed as change in cell morphology after 3 days by microscopic analysis
# Assay type: cell-based, Canis lupus familiaris
# test-conditions: dog
value-kind: MCC at 72 h (µM)
Give bare numbers, in µM.

The examples below pair each entry with its known result.
compound	MCC at 72 h [µM]
NC(=O)c1ncn([C@@H]2O[C@H](CO)[C@@H](O)[C@H]2O)n1	59
CCCCCCCCCCCCCCC(=O)Oc1ccc(COP(=O)(OCc2ccc(OC(=O)CCCC)cc2)OP(=O)(O)OC[C@H]2O[C@@H](n3cc(F)nc(C(N)=O)c3=O)[C@H](O)[C@@H]2O)cc1.CCN(CC)CC (stereo partly specified)	21

In the following, a different compound is considered.
So for CCCCCCCCCC(=O)Oc1ccc(COP(=O)(OCc2ccc(OC(=O)CCCCCCCCC)cc2)OP(=O)(O)OP(=O)(O)OC[C@H]2O[C@@H](n3ccnc(C(N)=O)c3=O)[C@H](O)[C@@H]2O)cc1.CCN(CC)CC.CCN(CC)CC , the logged MCC at 72 h turned out to be 16

Data origin, for the record: ChEMBL document CHEMBL4130627
